Hello, the source for this data is paper PMC6874179, in case you need it.

Biological target: WT ALK2 receptor (Homo sapiens, UniProt Q04771)
Assay: BRE-LUC reporter assay in C2C12 cells cotransfected with WT ALK2
Conditions: BMP-6 50 ng/mL 16 hours, 30-min preincubation, read-out: ALK2wt BMP-6 IC50

[
  {
    "compound": "Cc1cc2cc(c1)-c1cnn3ccc(nc13)NCCNC(=O)CCN(C)C2 [OD52]",
    "system.name": "WT ALK2 receptor (Homo sapiens, UniProt Q04771)",
    "IC50 [nM]": 1570
  },
  {
    "compound": "Clc1cc2cc(c1)-c1cnn3ccc(nc13)NCCOCCO2 [OD36]",
    "system.name": "WT ALK2 receptor (Homo sapiens, UniProt Q04771)",
    "IC50 [nM]": 308
  }
]

###

Molecular target: ACVR2B (Homo sapiens, UniProt Q13705)
Construct: T7 phage fusion (or DNA tag for qPCR if made in HEK-293); purchased DiscoverX; host or cells: E. coli (T7 phage) or HEK-293
Sequence (Q13705 19-512): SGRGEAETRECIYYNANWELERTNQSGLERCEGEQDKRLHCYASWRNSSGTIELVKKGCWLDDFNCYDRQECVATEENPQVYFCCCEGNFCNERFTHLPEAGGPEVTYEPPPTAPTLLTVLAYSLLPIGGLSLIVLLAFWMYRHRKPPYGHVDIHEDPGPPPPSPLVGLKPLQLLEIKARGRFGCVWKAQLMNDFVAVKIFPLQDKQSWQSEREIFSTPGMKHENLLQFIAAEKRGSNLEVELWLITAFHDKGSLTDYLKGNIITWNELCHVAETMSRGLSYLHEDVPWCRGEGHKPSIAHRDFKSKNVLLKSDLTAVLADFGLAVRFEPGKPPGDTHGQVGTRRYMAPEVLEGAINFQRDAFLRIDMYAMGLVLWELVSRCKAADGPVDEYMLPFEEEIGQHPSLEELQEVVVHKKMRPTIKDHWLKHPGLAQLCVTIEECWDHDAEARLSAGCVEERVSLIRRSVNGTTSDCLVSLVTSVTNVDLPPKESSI
Assay: DiscoverX Kd determination
Format: binding
quantity.measured: Kd (nM)

[
  {
    "compound": "Cc1cc2cc(c1)-c1cnn3ccc(nc13)NCCNC(=O)CCN(C)C2",
    "quantity.measured": "Kd",
    "result.value": 220
  },
  {
    "compound": "Clc1cc2cc(c1)-c1cnn3ccc(nc13)NCCOCCO2",
    "quantity.measured": "Kd",
    "result.value": 90
  },
  {
    "compound": "c1ccc2c(-c3cnn4cc(-c5ccc(N6CCNCC6)cc5)cnc34)ccnc2c1 [LDN-193189, reference compound]",
    "quantity.measured": "Kd",
    "result.value": 11
  }
]

###

Test: Microsomal incubations, rLM
Assay type: in vitro ADME
Conditions: rat, liver microsomes, pH 7.4; microsomes 0.5 mg/ml, 0.5 μM compound; read-out: Metabolic clearance rLM

[
  {
    "compound": "c1ccc2c(-c3cnn4cc(-c5ccc(N6CCNCC6)cc5)cnc34)ccnc2c1 [LDN-193189, reference compound]",
    "microsomal CLint at 0.5 μM (µL/min/mg)": 185
  },
  {
    "compound": "Clc1cc2cc(c1)-c1cnn3ccc(nc13)NCCOCCO2",
    "microsomal CLint at 0.5 μM (µL/min/mg)": 74
  },
  {
    "compound": "Cc1cc2cc(c1)-c1cnn3ccc(nc13)NCCNC(=O)CCN(C)C2",
    "microsomal CLint at 0.5 μM (µL/min/mg)": 32
  }
]

###

Biological target: TBR2 (Homo sapiens)
Construct: T7 phage fusion (or DNA tag for qPCR if made in HEK-293); purchased DiscoverX; host or cells: E. coli (T7 phage) or HEK-293
Sequence (P37173 23-567): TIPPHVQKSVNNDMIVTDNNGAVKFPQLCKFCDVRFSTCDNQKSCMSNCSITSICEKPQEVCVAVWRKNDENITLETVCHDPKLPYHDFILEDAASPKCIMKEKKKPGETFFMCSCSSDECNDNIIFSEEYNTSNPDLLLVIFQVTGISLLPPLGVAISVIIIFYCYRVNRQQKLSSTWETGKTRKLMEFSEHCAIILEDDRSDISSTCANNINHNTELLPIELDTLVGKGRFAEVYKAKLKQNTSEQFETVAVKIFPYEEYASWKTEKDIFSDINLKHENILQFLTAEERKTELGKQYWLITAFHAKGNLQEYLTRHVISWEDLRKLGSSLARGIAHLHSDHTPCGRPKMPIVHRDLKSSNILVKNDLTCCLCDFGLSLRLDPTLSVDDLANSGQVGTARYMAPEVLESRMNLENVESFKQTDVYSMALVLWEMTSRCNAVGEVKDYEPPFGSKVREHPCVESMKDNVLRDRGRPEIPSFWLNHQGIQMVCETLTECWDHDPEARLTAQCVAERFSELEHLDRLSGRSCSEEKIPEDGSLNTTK
Experiment: DiscoverX Kd determination
Format: binding

[
  {
    "compound": "c1ccc2c(-c3cnn4cc(-c5ccc(N6CCNCC6)cc5)cnc34)ccnc2c1 [LDN-193189, reference compound]",
    "Kd": "26 nM"
  }
]

###

Below, each of the compounds is paired with its reported Kd value.
Molecular target: ALK5 (Homo sapiens)
Construct: T7 phage fusion (or DNA tag for qPCR if made in HEK-293); purchased DiscoverX; host or cells: E. coli (T7 phage) or HEK-293
Sequence (P36897 34-503): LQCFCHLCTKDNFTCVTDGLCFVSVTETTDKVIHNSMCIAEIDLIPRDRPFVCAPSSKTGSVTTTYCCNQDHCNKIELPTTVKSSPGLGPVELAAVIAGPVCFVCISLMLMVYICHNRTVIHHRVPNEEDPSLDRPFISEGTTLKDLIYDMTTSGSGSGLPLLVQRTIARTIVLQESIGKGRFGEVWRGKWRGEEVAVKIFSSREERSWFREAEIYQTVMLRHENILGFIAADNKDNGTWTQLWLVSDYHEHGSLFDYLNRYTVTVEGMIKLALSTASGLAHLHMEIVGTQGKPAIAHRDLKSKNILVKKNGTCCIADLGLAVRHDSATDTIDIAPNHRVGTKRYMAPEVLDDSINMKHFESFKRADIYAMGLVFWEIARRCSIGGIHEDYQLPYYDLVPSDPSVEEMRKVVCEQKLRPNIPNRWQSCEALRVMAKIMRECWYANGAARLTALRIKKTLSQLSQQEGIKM
Assay: DiscoverX Kd determination
Format: binding
Method: DiscoverX Kd determination: For most assays, kinase-tagged T7 phage strains were prepared in an E. coli host derived from the BL21 strain. E. coli were grown to log-phase and infected with T7 phage and incubated with shaking at 32°C until lysis. […] Kds were determined using an 11-point 3-fold compound dilution series with three DMSO control points. […] The kinase concentration in the eluates was measured by qPCR. […] Most Kds were determined using a compound top concentration = 30.000 nM. […]

[
  {
    "structure.as.smiles": "Cc1cc2cc(c1)-c1cnn3ccc(nc13)NCCNC(=O)CCN(C)C2",
    "uom": "nM",
    "Kd": 850
  },
  {
    "structure.as.smiles": "Clc1cc2cc(c1)-c1cnn3ccc(nc13)NCCOCCO2",
    "uom": "nM",
    "Kd": 3000
  }
]

###

Target: TBR2 (Homo sapiens)
Construct: T7 phage fusion (or DNA tag for qPCR if made in HEK-293); purchased DiscoverX; host or cells: E. coli (T7 phage) or HEK-293
Assay: DiscoverX Kd determination
Format: binding
Conditions: read-out: Kd in nM TBR2
Below, each of the molecules is paired with its reported Kd value.

[
  {
    "structure.as.smiles": "Clc1cc2cc(c1)-c1cnn3ccc(nc13)NCCOCCO2",
    "system.name": "TBR2 (Homo sapiens)",
    "Kd / nM": 680
  },
  {
    "structure.as.smiles": "Cc1cc2cc(c1)-c1cnn3ccc(nc13)NCCNC(=O)CCN(C)C2",
    "system.name": "TBR2 (Homo sapiens)",
    "Kd / nM": 2500
  }
]

###

Target: ALK2 wt (Homo sapiens, UniProt Q04771)
Sequence (Q04771 208-502 limits assumed): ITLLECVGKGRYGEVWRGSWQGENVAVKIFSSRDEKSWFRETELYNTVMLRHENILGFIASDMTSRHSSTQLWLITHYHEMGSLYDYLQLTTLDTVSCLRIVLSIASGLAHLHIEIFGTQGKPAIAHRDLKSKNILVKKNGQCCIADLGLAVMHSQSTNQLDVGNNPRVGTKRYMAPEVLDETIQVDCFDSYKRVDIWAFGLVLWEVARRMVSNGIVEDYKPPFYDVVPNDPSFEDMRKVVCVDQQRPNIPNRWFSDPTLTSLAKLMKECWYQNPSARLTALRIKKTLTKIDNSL
Assay: RBC HotSpot Kinase assay
Assay type: biochemical
Below, each of the compounds is paired with its reported IC50 value.
quantity.measured: IC50 (nM)

[
  {
    "compound": "Clc1cc2cc(c1)-c1cnn3ccc(nc13)NCCOCCO2 [OD36]",
    "system.name": "ALK2 wt (Homo sapiens, UniProt Q04771)",
    "result.value": 47
  },
  {
    "compound": "Cc1cc2cc(c1)-c1cnn3ccc(nc13)NCCNC(=O)CCN(C)C2 [OD52]",
    "system.name": "ALK2 wt (Homo sapiens, UniProt Q04771)",
    "result.value": 72
  }
]

###

Target: ALK1 (Homo sapiens, UniProt P37023)
Construct: T7 phage fusion (or DNA tag for qPCR if made in HEK-293); purchased DiscoverX; host or cells: E. coli (T7 phage) or HEK-293
Sequence (P37023 22-503): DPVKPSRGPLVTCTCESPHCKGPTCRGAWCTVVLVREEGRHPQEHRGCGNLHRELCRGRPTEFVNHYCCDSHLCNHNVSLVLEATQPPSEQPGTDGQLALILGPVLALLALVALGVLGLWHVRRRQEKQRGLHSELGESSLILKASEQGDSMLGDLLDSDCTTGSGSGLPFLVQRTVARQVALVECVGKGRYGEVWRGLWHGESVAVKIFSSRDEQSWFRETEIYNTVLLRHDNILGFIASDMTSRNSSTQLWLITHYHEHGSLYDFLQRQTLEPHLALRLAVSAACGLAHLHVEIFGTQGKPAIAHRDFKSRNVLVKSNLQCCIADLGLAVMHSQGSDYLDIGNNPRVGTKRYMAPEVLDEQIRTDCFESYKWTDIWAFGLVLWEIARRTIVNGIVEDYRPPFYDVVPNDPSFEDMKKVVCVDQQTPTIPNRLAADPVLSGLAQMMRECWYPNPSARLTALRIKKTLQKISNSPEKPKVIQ
Assay: DiscoverX Kd determination
Format: binding
Below, each of the compounds is paired with its reported Kd value.
quantity.measured: Kd (nM)

[
  {
    "structure.as.smiles": "Cc1cc2cc(c1)-c1cnn3ccc(nc13)NCCNC(=O)CCN(C)C2",
    "system.name": "ALK1 (Homo sapiens, UniProt P37023)",
    "quantity.measured": "Kd",
    "result.value": 13
  },
  {
    "structure.as.smiles": "Clc1cc2cc(c1)-c1cnn3ccc(nc13)NCCOCCO2",
    "system.name": "ALK1 (Homo sapiens, UniProt P37023)",
    "quantity.measured": "Kd",
    "result.value": 90
  }
]

###

Assay: Chromlog D
Format: physicochemical
From the text: Supplement JBM4-3-na-s005.docx, table 3: Table S3. Solubility and metabolic clearance of selected macrocyclic inhibitors. | column: Chromlog D
Below, each of the compounds is paired with its reported chromatographic logD value.

[
  {
    "compound": "Cc1cc2cc(c1)-c1cnn3ccc(nc13)NCCNC(=O)CCN(C)C2 [OD52]",
    "chromatographic logD": 3.9
  },
  {
    "compound": "Clc1cc2cc(c1)-c1cnn3ccc(nc13)NCCOCCO2 [OD36]",
    "chromatographic logD": 5.4
  },
  {
    "compound": "c1ccc2c(-c3cnn4cc(-c5ccc(N6CCNCC6)cc5)cnc34)ccnc2c1 [LDN-193189, reference compound]",
    "chromatographic logD": 2.7
  }
]
